system: Leishmania tropica; assay: Percentage of growth inhibition of multidrug resistance Leishmania tropica Lines at 3 uM; type: functional
Parameter threshold = 70%. Response is True when inhibition at 3 µM meets or exceeds it, else False.

INSERT INTO results (molecule, category) VALUES
  ('CC(=O)O[C@H]1[C@@H](OC(=O)c2ccccc2)C[C@](C)(O)C23OC(C)(C)C(C[C@H](OC(=O)c4ccco4)[C@]12C)[C@H]3O (stereo partly specified)', 'False'),
  ('CC(=O)O[C@H]1C[C@](C)(O)C23OC(C)(C)C(C[C@H](OC(=O)c4ccco4)[C@]2(C)[C@H]1OC(C)=O)[C@H]3OC(=O)c1ccco1 (stereo partly specified)', 'True'),
  ('CC(=O)O[C@H]1C[C@](C)(O)C23OC(C)(C)C(C[C@H](OC(=O)c4ccco4)[C@]2(C)[C@H]1OC(C)=O)[C@H]3OC(=O)C(C)(C)C (stereo partly specified)', 'False'),
  ('CC(=O)OC[C@]12[C@@H](OC(=O)c3ccco3)CC3[C@@H](OC(=O)c4ccco4)C1(OC3(C)C)[C@@](C)(O)C[C@H](OC(C)=O)[C@@H]2OC(C)=O (stereo partly specified)', 'True'),
  ('CC(=O)O[C@H]1[C@@H](OC(=O)c2ccco2)C[C@](C)(O)C23OC(C)(C)C(C[C@H](OC(=O)c4ccco4)[C@]12C)[C@H]3OC(=O)c1ccco1 (stereo partly specified)', 'False'),
  ('CC(=O)O[C@H]1[C@@H](OC(=O)c2ccccc2)C[C@](C)(O)C23OC(C)(C)C(C[C@H](OC(=O)c4ccco4)[C@]12C)[C@H]3OC(=O)c1ccco1 (stereo partly specified)', 'True');

----------
# inhibition at 3 µM listing for each entry below
system: Leishmania tropica; assay: Percentage of growth inhibition of multidrug resistance Leishmania tropica Lines at 3 uM; assay type: functional
Measured Attribute: inhibition at 3 µM

INSERT INTO results (molecule, value_observed) VALUES
  ('CC(=O)O[C@H]1CC[C@](C)(O)C23OC(C)(C)C(C[C@H](OC(=O)c4ccco4)[C@]12C)[C@H]3OC(=O)c1ccco1 (stereo not given in full)', '66.9%'),
  ('COc1ccc(C(=O)O[C@@H]2C3C[C@H](OC(=O)c4ccco4)[C@]4(C)[C@@H](OC(C)=O)[C@@H](OC(C)=O)C[C@](C)(O)C24OC3(C)C)cc1 (stereo not given in full)', '35.4%'),
  ('CC(=O)OC[C@]12[C@@H](OC(=O)c3ccccc3)CC3[C@@H](OC(=O)c4ccccc4)C1(OC3(C)C)[C@@](C)(O)C[C@H](OC(C)=O)[C@@H]2OC(C)=O (stereo not given in full)', '77.5%'),
  ('CC(=O)O[C@H]1[C@@H](OC(=O)c2ccccc2)C[C@](C)(O)C23OC(C)(C)C(C[C@H](OC(=O)c4ccco4)[C@]12C)[C@H]3OC(=O)c1ccc([N+](=O)[O-])cc1 (stereo not given in full)', '13.5%'),
  ('CCCCCCCCCCCC(=O)O[C@@H]1C2C[C@H](OC(=O)c3ccco3)[C@]3(C)[C@@H](OC(C)=O)[C@@H](OC(C)=O)C[C@](C)(O)C13OC2(C)C (stereo not given in full)', '8.8%');

----------
# inhibition at 1 µM listing for each entry below
tested on: Leishmania tropica; assay: Percentage of growth inhibition of multidrug resistance Leishmania tropica Lines at 1 uM.; assay type: functional
Measured Attribute: inhibition at 1 µM

INSERT INTO measurements (compound, measured_attribute, value_observed) VALUES
  ('CC(=O)O[C@@H]1C2C[C@H](OC(=O)c3ccco3)[C@]3(C)[C@@H](OC(C)=O)[C@@H](OC(=O)c4ccccc4)C[C@](C)(O)C13OC2(C)C (stereo partly drawn)', 'inhibition at 1 µM', '< 6%'),
  ('CCCCCCCCCCCC(=O)O[C@@H]1C2C[C@H](OC(=O)c3ccco3)[C@]3(C)[C@@H](OC(C)=O)[C@@H](OC(C)=O)C[C@](C)(O)C13OC2(C)C (stereo partly drawn)', 'inhibition at 1 µM', '< 6%'),
  ('CC(=O)O[C@H]1[C@@H](O)C[C@](C)(O)C23OC(C)(C)C(C[C@H](OC(=O)c4ccco4)[C@]12C)[C@H]3OC(=O)c1ccco1 (stereo partly drawn)', 'inhibition at 1 µM', '< 6%');
